# method.description: in vitro
# assay.setup: human, MCF-10A cells
# Description: Antiproliferative activity against human MCF-10A cells assessed as cell viability incubated for 72 hrs by MTT assay
quantity.name: IC50 at 72 h

CC(=O)c1c(C)c2cnc(Nc3ccc(N4CCNCC4)cn3)nc2n(C2CCCC2)c1=O [PALBOCICLIB]; > 20 µM

Kindly consider the entry below.
Report IC50 at 72 h for `Cc1sc2c(c1C)C(c1ccc(Cl)cc1)=N[C@@H](CC(=O)OC(C)(C)C)c1nnc(C)n1-2` > 20 µM

---

# target.or.test.system: Bromodomain-containing protein 2 (Homo sapiens)
# Sequence (P25440 whole entry): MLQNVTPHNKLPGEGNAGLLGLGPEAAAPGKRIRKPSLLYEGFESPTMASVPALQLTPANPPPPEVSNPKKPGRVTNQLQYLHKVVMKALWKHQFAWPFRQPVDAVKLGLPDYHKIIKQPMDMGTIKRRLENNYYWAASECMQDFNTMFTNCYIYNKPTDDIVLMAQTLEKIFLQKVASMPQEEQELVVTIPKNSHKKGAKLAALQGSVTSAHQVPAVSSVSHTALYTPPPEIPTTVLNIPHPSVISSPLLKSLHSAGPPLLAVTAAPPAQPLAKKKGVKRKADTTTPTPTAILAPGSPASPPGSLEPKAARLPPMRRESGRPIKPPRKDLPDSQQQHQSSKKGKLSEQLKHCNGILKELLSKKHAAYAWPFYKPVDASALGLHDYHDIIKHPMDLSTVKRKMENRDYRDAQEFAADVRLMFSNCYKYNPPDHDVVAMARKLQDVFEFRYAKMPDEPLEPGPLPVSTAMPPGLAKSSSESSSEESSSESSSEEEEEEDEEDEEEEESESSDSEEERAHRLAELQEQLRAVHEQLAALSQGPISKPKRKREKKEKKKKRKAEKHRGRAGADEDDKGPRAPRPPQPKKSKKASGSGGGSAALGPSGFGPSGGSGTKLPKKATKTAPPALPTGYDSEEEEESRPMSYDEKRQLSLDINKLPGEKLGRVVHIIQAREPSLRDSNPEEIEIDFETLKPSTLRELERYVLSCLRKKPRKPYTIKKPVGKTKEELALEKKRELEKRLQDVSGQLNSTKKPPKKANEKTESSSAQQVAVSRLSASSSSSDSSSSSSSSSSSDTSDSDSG
pIC50: −log10 of the molar value.
quantity.name: pIC50

Please report the measured pIC50 for `COc1cc(OC)c2c(=O)[nH]c(-c3ccc(C(=O)N4CC5(CCN(c6ncc7c(C)cc(=O)n(C8CCCC8)c7n6)CC5)C4)cc3)nc2c1` tested on Bromodomain-containing protein 2 (Homo sapiens). < 6.00
